Where do these numbers come from? They come from patent US8586613B2.

# System: MDA.MB.468
# Assay summary: MTT cell viability, panel of cell lines
# Type: cell-based, human
# Run parameters: MDA.MB.468, Breast, 72 h
Measured quantity: IC50 (nM)
Give the number; nM is assumed, so skip it.

State the recorded IC50 for this entry: CN(c1ccc(Cl)cc1)c1cc[n+](Cc2ccc(-c3ccc(C[n+]4ccc(N(C)c5ccc(Cl)cc5)c5ccccc54)cc3)cc2)c2ccccc12.[Br-].[Br-]
2400

---

# Test system: MDA.MB.231
# Assay summary: MTT cell viability, panel of cell lines
# Assay type: cell-based, human
# Run parameters: MDA.MB.231, Breast, 72 h
Measured quantity: IC50 (nM)
Numbers only; they are read as nM.

Given the entry CN(c1ccc(Cl)cc1)c1cc[n+](Cc2ccc(-c3ccc(C[n+]4ccc(N(C)c5ccc(Cl)cc5)c5ccccc54)cc3)cc2)c2ccccc12.[Br-].[Br-] , report its measured IC50.
1300

---

# Tested target: choline kinase from Plasmodium falcifarum (Pf-ChoK) (Plasmodium falciparum, UniProt Q8IM71)
# Construct: made in house; host or cells: E. coli
# Sequence (Q8IM71 entry or part of it): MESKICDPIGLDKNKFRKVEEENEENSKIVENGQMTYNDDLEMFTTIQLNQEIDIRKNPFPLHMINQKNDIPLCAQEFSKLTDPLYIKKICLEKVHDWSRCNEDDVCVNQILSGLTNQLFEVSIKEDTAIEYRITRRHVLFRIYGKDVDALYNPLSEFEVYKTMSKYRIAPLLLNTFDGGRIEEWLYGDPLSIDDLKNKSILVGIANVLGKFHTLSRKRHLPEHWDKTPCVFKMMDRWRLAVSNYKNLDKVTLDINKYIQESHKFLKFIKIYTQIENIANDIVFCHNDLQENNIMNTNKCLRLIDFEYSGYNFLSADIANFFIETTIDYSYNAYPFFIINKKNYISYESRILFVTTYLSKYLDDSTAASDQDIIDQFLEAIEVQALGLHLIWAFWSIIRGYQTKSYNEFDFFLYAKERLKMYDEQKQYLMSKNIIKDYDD
# Assay summary: Sensitivity of Plasmodium falcifarum choline kinase (expressed in E. coli)
# Assay type: biochemical
# Run parameters: read-out: IC50 (inhibition of Pf-ChoK)
Measured quantity: pIC50
// field semantics: pIC50 = negative decimal log of concentration (mol/L)

Which pIC50 value belongs to CN(c1ccc(Cl)cc1)c1cc[n+](Cc2ccc(-c3ccc(C[n+]4ccc(N(C)c5ccc(Cl)cc5)c5ccccc54)cc3)cc2)c2ccccc12.[Br-].[Br-] ?
6.03

---

Consider the following compounds; for each one, report its pIC50.
# Tested target: Human ChoK (Homo sapiens)
# Construct: made in house; host or cells: E. coli
# Assay summary: Ex vivo assay of the activity of human ChoK (recombinant choline kinase expressed in E. coli)
# Format: biochemical
# Run parameters: recombinant human ChoK, 37° C., 30 minutes
Quick note: pIC50 values are minus log10 of concentrations in mol/L.

Quick check: pIC50 on Human ChoK (Homo sapiens), item Clc1ccc2c(N3CCCC3)cc[n+](Cc3cccc(-c4cccc(C[n+]5ccc(N6CCCC6)c6ccc(Cl)cc65)c4)c3)c2c1 [EC4, reference compound] ?
5.92

Proceed to c1cc(C[n+]2ccc(N3CCCC3)cc2)cc(-c2cccc(C[n+]3ccc(N4CCCC4)cc3)c2)c1 [EC1, reference compound]
5.24

Can you check CN(C)c1cc[n+](Cc2ccc(CCCc3ccc(C[n+]4ccc(N(C)C)cc4)cc3)cc2)cc1 [EC6, reference compound] next?
4.66

CN(c1ccccc1)c1cc[n+](Cc2cccc(-c3cccc(C[n+]4ccc(N(C)c5ccccc5)cc4)c3)c2)cc1.[Br-].[Br-] , same question.
6.38

Please do the same for CN(C)c1cc[n+](Cc2cccc(-c3cccc(C[n+]4ccc(N(C)C)c5ccc(Cl)cc54)c3)c2)c2cc(Cl)ccc12 [EC3, reference compound] as well.
5.02

Now try CN(c1ccc(Cl)cc1)c1cc[n+](Cc2ccc(-c3ccc(C[n+]4ccc(N(C)c5ccc(Cl)cc5)c5ccc(Cl)cc54)cc3)cc2)c2cc(Cl)ccc12 .
4.94

---

# Test system: H460
# Assay summary: MTT cell viability, panel of cell lines
# Type: cell-based, human
# Run parameters: H460, Lung, 72 h
Measured quantity: IC50 (µM)
The figure you give is taken to be in µM; do not add the unit.

Report IC50 for CN(c1ccc(Cl)cc1)c1cc[n+](Cc2ccc(-c3ccc(C[n+]4ccc(N(C)c5ccc(Cl)cc5)c5ccccc54)cc3)cc2)c2ccccc12.[Br-].[Br-] please.
1.9

---

# Tested target: Human ChoK (Homo sapiens, UniProt P35790)
# Construct: made in house; host or cells: E. coli
# Sequence (P35790 whole entry): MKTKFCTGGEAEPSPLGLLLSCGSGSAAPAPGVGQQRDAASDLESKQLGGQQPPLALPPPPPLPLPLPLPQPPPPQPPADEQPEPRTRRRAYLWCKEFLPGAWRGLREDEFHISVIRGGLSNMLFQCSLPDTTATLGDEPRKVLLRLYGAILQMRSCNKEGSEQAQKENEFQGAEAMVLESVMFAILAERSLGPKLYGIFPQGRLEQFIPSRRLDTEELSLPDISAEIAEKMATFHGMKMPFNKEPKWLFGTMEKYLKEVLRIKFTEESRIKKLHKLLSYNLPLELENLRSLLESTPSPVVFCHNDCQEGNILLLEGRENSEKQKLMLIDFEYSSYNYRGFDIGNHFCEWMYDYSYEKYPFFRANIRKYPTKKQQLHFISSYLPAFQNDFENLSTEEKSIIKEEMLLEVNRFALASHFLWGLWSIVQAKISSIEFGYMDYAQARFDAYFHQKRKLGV
# Assay summary: Ex vivo assay of the activity of human ChoK (recombinant choline kinase expressed in E. coli)
# Assay type: biochemical
Measured quantity: IC50 (nM)
Numeric only. Scale: nM

Which IC50 reading was recorded for the compound c1cc(C[n+]2ccc(N3CCCCC3)cc2)cc(-c2cccc(C[n+]3ccc(N4CCCCC4)cc3)c2)c1 [EC2, reference compound] ?
1900

---

Answer each item with its documented pIC50.
# Tested target: Human ChoK (Homo sapiens, UniProt P35790)
# Construct: made in house; host or cells: E. coli
# Assay summary: Ex vivo assay of the activity of human ChoK (recombinant choline kinase expressed in E. coli)
# Type: biochemical
# Run parameters: recombinant human ChoK, 37° C., 30 minutes
Expect pIC50 as a plain number equal to -log10 of the molar concentration.

Suppose we examine the compound Clc1ccc2c(N3CCCC3)cc[n+](Cc3ccc(CCc4ccc(C[n+]5ccc(N6CCCC6)c6ccc(Cl)cc65)cc4)cc3)c2c1 [EC5, reference compound] ; what pIC50 value has been reported?
6.00

What do we get for CN(c1ccc(Cl)cc1)c1cc[n+](Cc2ccc(CCc3ccc(C[n+]4ccc(N(C)c5ccc(Cl)cc5)c5ccccc54)cc3)cc2)c2ccccc12 ?
5.32

And the next one, CN(c1ccc(Cl)cc1)c1cc[n+](Cc2cccc(-c3cccc(C[n+]4ccc(N(C)c5ccc(Cl)cc5)c5ccc(Cl)cc54)c3)c2)c2cc(Cl)ccc12 ?
5.24

Also CN(c1ccc(Cl)cc1)c1cc[n+](Cc2ccc(CCc3ccc(C[n+]4ccc(N(C)c5ccc(Cl)cc5)c5ccc(Cl)cc54)cc3)cc2)c2cc(Cl)ccc12 ?
5.24
